Recorded values, source patent EP1789452B1.

Target: human GPCR142 (human, UniProt Q8TDU9 1-374)
Sequence (Q8TDU9 whole entry L329S, form in doubt): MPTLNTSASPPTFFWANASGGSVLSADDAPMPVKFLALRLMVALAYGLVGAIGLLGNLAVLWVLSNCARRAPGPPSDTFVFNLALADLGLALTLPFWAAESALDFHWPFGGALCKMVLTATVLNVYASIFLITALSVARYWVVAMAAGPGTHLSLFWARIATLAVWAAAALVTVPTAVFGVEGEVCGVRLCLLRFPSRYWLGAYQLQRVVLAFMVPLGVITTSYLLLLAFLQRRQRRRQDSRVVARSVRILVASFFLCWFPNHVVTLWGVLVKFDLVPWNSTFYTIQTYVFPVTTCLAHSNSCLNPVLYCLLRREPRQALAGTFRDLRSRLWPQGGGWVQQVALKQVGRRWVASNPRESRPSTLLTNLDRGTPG
Test: cell-based or functional assay
Ends that are not written are not given here.
reported property: EC50, inhibition of forskolin stimulated β-galactosidase expression (nM)
Just the number please, in nM, no unit attached.

[
  {
    "binder": "Relaxin-3/INSL6 (R3/I6) chimeric polypeptide (ligand, human, disulfide (positions not given here), domain: A-chain; Two chains joined by disulfide bonds; FLAG tag removed) chain 1: RAAPYGVRLCGREFIRAVIFTCGGSRW chain 2: GYSEKCCLTGCTKEELSIAC",
    "unit text": "nM",
    "assay value": 11.2
  }
]

As a next step, examine the binder that follows.
Documented EC50, inhibition of forskolin stimulated β-galactosidase expression of Relaxin-3/INSL3 (R3/I3) chimeric polypeptide (ligand, human, disulfide (positions not given here), domain: A-chain; Two chains joined by disulfide bonds; FLAG tag removed) chain 1: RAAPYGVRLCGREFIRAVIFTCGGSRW chain 2: NPARYCCLSGCTQQDLLTLC : 2.9
